Target: T1, CD134 expressed on the cell surface of HT1080_OX40 cells (human, UniProt P43489 29-277); note: test concentration or dose not given here
T1 sequence (looked up): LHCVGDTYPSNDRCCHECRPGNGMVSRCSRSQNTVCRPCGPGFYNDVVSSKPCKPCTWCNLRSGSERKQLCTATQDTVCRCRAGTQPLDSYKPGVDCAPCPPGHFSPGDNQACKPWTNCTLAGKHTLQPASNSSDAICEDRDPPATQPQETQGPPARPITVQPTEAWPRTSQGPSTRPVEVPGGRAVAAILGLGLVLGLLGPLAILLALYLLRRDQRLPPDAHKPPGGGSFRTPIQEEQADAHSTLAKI
Assay: cell-based or functional assay
measuredParameter: Functional assay Cross-linked by F(ab′)2 fragment IL-8 (abs. corr.)
State the answer as a number, implicitly in abs. corr..

Fill blank: measured Functional assay Cross-linked by F(ab′)2 fragment IL-8 of the binder P018.S.12.A.H04 (antibody, V domains shown, V regions on human Ig constant parts; also called AB134_90) VH: QSVEESGGRLVTPGTPLTLTCTASGFSLSDYYMSWVRQAPGKGLEWIGFMNSGGNAYYASWASGRFTISKTSTTVDLKITSPTTEDTATYFCVRDLSRFSLWGRGTLVIVSS VL: AAVLTQTPSPVSAAVGGTVTINCQASPSVYSDYLSWFQQKPGQAPKLLIYWASTLTSGVPSRFSGSGSGTQFTLTISDVQSDDAATYYCAGGYSGNSDVWAFGGGTEVVVK is ____.
1.89

Another: P018.S.05.A.G05 (antibody, V domains shown, V regions on human Ig constant parts; also called AB134_18) VH: QSVEESGGRLVTPGTPLTLTCTVSGIDLSNHGMGWFRQGPGKGLEWIGIIYIDGGASYASWVNGRFTISKTSTTVDLKITSPTTEDTATYFCARGIPSDGDSSYYYFNLWGQGTLVTVAS VL: DVVMTQTPASVEAAVGGTVTIKCQASQSVYNKYLSWFQQKPGQPPKLLIYRASTLESGVSSRFKGSGSGTEFTLTISDLESADAATYYCQNNNGAGDNTDYTFGGGTEVVVK
2.39

Another: P018.S.11.A.F05 (antibody, V domains shown, V regions on human Ig constant parts; also called AB134_41) VH: QSLEESGGRLVTPGTPLTLTCTVSGFSLSRYHMSWVRQAPGKGLEYIGYIHTDDTNWYASWAKGRFTISKTSTTVDLKITSPTTEDTATYFCARVSSVGGYYFDLWGQGTLVTVSS VL: DVVMTQTPASVSEPVGGTVTIKCQASEDIYNLLAWYQQKPGQPPKLLIYAASTLASGVPSRFKGSGSGTQFTLTISDLESADAATYYCQNNYLISSYGVGFGGGTEVVVK
2.15

Another: P018.S.11.A.H02 (antibody, V domains shown, V regions on human Ig constant parts; also called AB134_46) VH: QSVEESGGRLVTPGTPLTLTCTVSGFSLSNYAMSWVRQAPGKGLEWIGIISPSGNTYYANWAKGRFTISKTSTTVDLKITSPTTEDTATYFCAREGALYDDYGDYVDAFDPWGPGTLVTVSS VL: AAVLTQTPSPVSAAVGGTVSISCQSSESVYNNNWLSWYQQKPGQPPKLLIYRASTLASGVPSRFKGSGSGTQFTLTISDVQSDDAATYYCAGGYSSSSDINAFGGGTEVVVK
1.8

Another: P018.S.12.A.C01 (antibody, V domains shown, V regions on human Ig constant parts; also called AB134_61) VH: QEQLKESGGGLVTPGGTLTLTCTASGFTFSSHAMGWVRQAPGKGLEWIGKIYDDGTTFYANWAKGRFTISRTSTTVDLKMTSLTTEDTATYFCLRGYNSGFNFWGQGTLVTVSS VL: AQVLTQTPASVSAAVGGTVTISCQSSESVYNNNFLAWYQQKPGQPPKLLIYLASTLASGVPSRFSGSGSGTEFTLTISDLDSDDAATYYCAGGYDDNVYGFGGGTEVVVK
2.06
